System: Hepatitis B virus
Test: Antiviral activity against HBV infected in human HepG2.2.15 cells assessed as reduction in HBeAg level in cellular supernatant by luminescence based microplate reader analysis
Assay type: functional, organism-based
Measured pEC50 values are reported for all entries that follow.
// pEC50: -log10(molar conc.)

Below: 6 molecules and their reported pEC50.
COc1cc2c(cc1OC[C@@H]1CCCO1)C[C@H](C(C)C)n1cc(C(=O)O)c(=O)cc1-2 | 5.70
COc1cc2c(cc1OCc1ccc3c(c1)OCO3)C[C@@H](C(C)C)n1cc(C(=O)O)c(=O)cc1-2 | 6.72
COc1cc2c(cc1OC[C@@H]1COc3cccnc3O1)C[C@H](C(C)C)n1cc(C(=O)O)c(=O)cc1-2 | 5.50
COc1cc2c(cc1OCc1ccc3c(c1)OCO3)C[C@H](C(C)C)n1cc(C(=O)O)c(=O)cc1-2 | 5.69
COc1cc2c(cc1OC[C@H]1CCCO1)C[C@H](C(C)C)n1cc(C(=O)O)c(=O)cc1-2 | 5.47
COc1cc2c(cc1OC[C@H]1COc3cccnc3O1)C[C@@H](C(C)C)n1cc(C(=O)O)c(=O)cc1-2 | 6.99

Please report pEC50 for the following molecule: "COc1cc2c(cc1OC[C@@H]1CCCO1)C[C@@H](C(C)C)n1cc(C(=O)O)c(=O)cc1-2"
8.34
